# credit: patent EP4592286A1

Reported inhibition at 0.01 µM values for the following compounds.
- experimentalSystem: CDK7 (Homo sapiens)
- Sequence (P50613 whole entry, species assumed): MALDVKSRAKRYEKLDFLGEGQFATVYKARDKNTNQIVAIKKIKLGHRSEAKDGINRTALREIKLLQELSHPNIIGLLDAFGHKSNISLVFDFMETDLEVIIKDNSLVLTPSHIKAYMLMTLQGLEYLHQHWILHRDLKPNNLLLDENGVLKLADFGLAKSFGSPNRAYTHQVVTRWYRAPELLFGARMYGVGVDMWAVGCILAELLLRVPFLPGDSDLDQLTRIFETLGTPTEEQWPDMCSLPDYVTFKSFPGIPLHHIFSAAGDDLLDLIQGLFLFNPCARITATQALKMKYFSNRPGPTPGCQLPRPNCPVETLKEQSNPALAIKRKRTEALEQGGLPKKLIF
- Sequence (P51946 whole entry partner, species assumed): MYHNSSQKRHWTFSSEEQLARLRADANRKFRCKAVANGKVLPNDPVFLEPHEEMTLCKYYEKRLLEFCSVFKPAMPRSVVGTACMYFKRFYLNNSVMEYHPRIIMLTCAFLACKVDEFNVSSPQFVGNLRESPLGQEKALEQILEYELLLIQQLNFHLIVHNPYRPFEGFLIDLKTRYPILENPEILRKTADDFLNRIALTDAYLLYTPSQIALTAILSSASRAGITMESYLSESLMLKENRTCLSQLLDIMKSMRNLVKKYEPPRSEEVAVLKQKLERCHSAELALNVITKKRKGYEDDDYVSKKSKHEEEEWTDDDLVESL
- Sequence (P51948 whole entry partner, species assumed): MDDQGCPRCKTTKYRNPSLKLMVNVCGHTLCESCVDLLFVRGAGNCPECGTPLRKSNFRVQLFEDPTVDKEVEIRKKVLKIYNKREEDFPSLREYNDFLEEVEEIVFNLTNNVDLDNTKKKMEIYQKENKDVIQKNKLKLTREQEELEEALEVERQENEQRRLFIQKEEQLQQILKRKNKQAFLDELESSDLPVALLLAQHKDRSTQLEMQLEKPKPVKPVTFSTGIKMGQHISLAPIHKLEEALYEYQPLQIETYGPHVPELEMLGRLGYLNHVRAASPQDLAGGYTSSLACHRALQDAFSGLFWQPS
- experimentSummary: experiment of inhibiting kinase activity (Caliper mobility shift assay), CDK7
- Format: biochemical
- measurementConditions: at 10 nM; read-out: inhibition rate CDK7

# compound, inhibition at 0.01 µM
measured = [
    ("CC(=O)N1CCOCCOc2cc(Nc3nc(Nc4ccccc4S(=O)(=O)C(C)C)c4cc[nH]c4n3)ccc2OCC1 [Example 98]", "25 to 39%"),
    ("CC(C)S(=O)(=O)c1ccccc1Nc1nc(Nc2ccc3c(c2)OCCN(C)CCOCCO3)nc2[nH]ccc12 [Example 53]", "> 80%"),
    ("CC(C)S(=O)(=O)c1ccccc1Nc1nc(Nc2ccc3c(c2)OCCN(C)CCOCCO3)nc2[nH]ncc12 [Example 12]", "40 to 79%"),
]

----------
- experimentalSystem: JAK2 (Homo sapiens, UniProt O60674)
- Sequence (O60674 whole entry): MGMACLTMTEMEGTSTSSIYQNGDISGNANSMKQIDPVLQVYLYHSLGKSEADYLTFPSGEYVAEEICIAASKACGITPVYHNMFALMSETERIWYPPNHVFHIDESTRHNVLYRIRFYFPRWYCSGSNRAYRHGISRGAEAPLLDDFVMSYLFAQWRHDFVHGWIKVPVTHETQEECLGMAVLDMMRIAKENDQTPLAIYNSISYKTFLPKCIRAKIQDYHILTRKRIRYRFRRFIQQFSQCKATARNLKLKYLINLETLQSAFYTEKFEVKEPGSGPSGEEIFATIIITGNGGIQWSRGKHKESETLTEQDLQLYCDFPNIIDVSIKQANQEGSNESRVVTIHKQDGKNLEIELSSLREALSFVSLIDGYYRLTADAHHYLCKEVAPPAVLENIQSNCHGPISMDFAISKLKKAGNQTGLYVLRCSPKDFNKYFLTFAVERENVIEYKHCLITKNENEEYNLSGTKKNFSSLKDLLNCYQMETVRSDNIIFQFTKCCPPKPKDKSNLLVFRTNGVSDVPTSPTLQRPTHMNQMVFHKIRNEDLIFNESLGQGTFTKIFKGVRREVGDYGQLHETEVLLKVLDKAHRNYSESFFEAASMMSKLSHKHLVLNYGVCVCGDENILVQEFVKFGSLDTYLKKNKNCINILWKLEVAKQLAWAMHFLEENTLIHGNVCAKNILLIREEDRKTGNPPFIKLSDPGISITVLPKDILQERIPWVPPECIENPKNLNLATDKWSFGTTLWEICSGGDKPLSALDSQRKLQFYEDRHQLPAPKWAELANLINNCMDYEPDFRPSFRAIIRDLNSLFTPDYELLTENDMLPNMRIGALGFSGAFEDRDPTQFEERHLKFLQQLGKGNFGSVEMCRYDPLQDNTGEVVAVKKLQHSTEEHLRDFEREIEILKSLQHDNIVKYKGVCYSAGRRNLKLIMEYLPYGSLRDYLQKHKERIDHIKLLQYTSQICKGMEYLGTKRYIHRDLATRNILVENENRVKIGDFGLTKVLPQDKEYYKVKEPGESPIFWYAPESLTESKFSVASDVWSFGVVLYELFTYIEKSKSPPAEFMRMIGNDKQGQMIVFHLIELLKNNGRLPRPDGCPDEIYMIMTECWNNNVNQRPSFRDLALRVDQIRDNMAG
- experimentSummary: experiment of inhibiting kinase activity (Caliper mobility shift assay), JAK2
- Format: biochemical
- measurementConditions: at 10 nM; read-out: inhibition rate JAK2

# molecule, inhibition at 0.01 µM
rows = [
    ("CN1CCOCCOc2cc(Nc3nc(-c4cnn([C@H](CC#N)C5CCCC5)c4)c4cc[nH]c4n3)ccc2OCC1 [Example 74]", "> 80%"),
    ("CC(C)S(=O)(=O)c1ccccc1Nc1nc(Nc2ccc3c(c2)OCCOCCN(C)CCO3)nc2[nH]cnc12 [Example 60]", "40 to 79%"),
    ("CC(C)S(=O)(=O)c1ccccc1Nc1nc(Nc2ccc3c(c2)OCCN(C)CCO3)ncc1C(F)(F)F [Example 82]", "40 to 79%"),
    ("CN1CCOc2ccc(Nc3nc(-c4cnn([C@@H](CC#N)C5CCCC5)c4)c4cc[nH]c4n3)cc2OCC1 [Example 77]", "> 80%"),
    ("CN1CCOc2ccc(Nc3ncc(F)c(Nc4cccc(S(=O)(=O)NC(C)(C)C)c4)n3)cc2OCC1 [Example 1]", "40 to 79%"),
    ("CN1CCOCCOc2ccc(Nc3ncc(F)c(-c4ccc(C(=O)NCC#N)cc4)n3)cc2OCC1 [Example 44]", "> 80%"),
    ("CN1CCOCCOc2ccc(Nc3nc(-c4cnn(C(CC#N)C5CCCC5)c4)c4cc[nH]c4n3)cc2OCC1 (centres unmarked) [Example 48]", "> 80%"),
    ("CN1CCOCCOc2ccc(Nc3ncc(F)c(-c4cnn(C(CC#N)C5CCCC5)c4)n3)cc2OCC1 (centres unmarked) [Example 42]", "> 80%"),
]

----------
- experimentalSystem: JAK3 (Homo sapiens, UniProt P52333)
- Sequence (P52333 1-1124): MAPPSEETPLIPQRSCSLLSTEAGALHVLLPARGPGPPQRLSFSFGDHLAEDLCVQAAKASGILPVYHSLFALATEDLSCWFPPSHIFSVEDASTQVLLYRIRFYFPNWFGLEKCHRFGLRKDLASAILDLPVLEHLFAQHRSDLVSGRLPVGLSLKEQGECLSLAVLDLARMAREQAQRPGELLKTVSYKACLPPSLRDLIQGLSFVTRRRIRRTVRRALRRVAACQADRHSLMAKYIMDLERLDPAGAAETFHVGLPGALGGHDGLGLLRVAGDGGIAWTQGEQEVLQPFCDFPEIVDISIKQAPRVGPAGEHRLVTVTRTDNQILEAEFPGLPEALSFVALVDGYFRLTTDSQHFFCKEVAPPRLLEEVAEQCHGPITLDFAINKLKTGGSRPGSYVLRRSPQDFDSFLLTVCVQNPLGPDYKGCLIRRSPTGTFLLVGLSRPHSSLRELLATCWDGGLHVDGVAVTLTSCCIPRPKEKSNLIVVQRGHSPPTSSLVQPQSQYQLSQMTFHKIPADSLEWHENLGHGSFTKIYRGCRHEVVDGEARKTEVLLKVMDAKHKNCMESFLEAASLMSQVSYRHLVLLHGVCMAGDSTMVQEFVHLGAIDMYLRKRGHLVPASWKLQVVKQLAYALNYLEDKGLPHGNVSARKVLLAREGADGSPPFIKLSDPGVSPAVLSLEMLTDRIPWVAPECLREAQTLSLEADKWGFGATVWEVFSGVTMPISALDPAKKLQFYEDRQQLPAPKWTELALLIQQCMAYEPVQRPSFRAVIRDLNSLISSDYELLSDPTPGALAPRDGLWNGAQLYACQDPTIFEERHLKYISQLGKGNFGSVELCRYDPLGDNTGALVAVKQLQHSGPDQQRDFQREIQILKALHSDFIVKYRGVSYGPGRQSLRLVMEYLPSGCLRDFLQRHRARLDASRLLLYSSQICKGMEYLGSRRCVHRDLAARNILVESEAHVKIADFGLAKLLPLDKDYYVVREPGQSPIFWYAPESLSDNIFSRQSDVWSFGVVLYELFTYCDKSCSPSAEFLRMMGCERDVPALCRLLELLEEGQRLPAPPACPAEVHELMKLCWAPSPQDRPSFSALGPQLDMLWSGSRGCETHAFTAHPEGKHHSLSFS
- experimentSummary: experiment of inhibiting kinase activity (Caliper mobility shift assay), JAK3
- Type: biochemical
- measurementConditions: at 10 nM; read-out: inhibition rate JAK3
# inhibition at 0.01 µM per record follows

# molecule, experimentalSystem, inhibition at 0.01 µM
rows = [
    ("CN1CCOCCOc2ccc(Nc3nc(-c4cnn(C(CC#N)C5CCCC5)c4)c4cc[nH]c4n3)cc2OCC1 (stereo not shown) [Example 48]", "JAK3 (Homo sapiens, UniProt P52333)", "> 80%"),
    ("Cc1nc2c(F)cc(-c3nc(Nc4ccc5c(c4)OCCOCCN(C)CCO5)nc4[nH]ccc34)cc2n1C(C)C [Example 31]", "JAK3 (Homo sapiens, UniProt P52333)", "40 to 79%"),
    ("CCS(=O)(=O)N1CC(CC#N)(n2cc(-c3nc(Nc4ccc5c(c4)OCCN(C)CCOCCO5)ncc3F)cn2)C1 [Example 43]", "JAK3 (Homo sapiens, UniProt P52333)", "25 to 39%"),
    ("CC(C)S(=O)(=O)c1ccccc1Nc1nc(Nc2ccc3c(c2)OCCOCCN(S(C)(=O)=O)CCO3)nc2[nH]ccc12 [Example 99]", "JAK3 (Homo sapiens, UniProt P52333)", "40 to 79%"),
    ("C=CC(=O)Nc1cccc(Nc2nc(Nc3ccc4c(c3)OCCN(C)CCO4)ncc2Cl)c1 [Example 55]", "JAK3 (Homo sapiens, UniProt P52333)", "> 80%"),
    ("CN1CCOCCOc2cc(Nc3ncc(F)c(Nc4ccc5[nH]ccc5c4)n3)ccc2OCC1 [Example 30]", "JAK3 (Homo sapiens, UniProt P52333)", "25 to 39%"),
    ("CN1CCOCCOc2cc(Nc3ncc(F)c(-c4ccc(C(=O)NCC#N)cc4)n3)ccc2OCC1 [Example 16]", "JAK3 (Homo sapiens, UniProt P52333)", "40 to 79%"),
]
